- tested_on: EGFR wildtype (WT) (Homo sapiens, UniProt P00533)
- Sequence (P00533 25-1210): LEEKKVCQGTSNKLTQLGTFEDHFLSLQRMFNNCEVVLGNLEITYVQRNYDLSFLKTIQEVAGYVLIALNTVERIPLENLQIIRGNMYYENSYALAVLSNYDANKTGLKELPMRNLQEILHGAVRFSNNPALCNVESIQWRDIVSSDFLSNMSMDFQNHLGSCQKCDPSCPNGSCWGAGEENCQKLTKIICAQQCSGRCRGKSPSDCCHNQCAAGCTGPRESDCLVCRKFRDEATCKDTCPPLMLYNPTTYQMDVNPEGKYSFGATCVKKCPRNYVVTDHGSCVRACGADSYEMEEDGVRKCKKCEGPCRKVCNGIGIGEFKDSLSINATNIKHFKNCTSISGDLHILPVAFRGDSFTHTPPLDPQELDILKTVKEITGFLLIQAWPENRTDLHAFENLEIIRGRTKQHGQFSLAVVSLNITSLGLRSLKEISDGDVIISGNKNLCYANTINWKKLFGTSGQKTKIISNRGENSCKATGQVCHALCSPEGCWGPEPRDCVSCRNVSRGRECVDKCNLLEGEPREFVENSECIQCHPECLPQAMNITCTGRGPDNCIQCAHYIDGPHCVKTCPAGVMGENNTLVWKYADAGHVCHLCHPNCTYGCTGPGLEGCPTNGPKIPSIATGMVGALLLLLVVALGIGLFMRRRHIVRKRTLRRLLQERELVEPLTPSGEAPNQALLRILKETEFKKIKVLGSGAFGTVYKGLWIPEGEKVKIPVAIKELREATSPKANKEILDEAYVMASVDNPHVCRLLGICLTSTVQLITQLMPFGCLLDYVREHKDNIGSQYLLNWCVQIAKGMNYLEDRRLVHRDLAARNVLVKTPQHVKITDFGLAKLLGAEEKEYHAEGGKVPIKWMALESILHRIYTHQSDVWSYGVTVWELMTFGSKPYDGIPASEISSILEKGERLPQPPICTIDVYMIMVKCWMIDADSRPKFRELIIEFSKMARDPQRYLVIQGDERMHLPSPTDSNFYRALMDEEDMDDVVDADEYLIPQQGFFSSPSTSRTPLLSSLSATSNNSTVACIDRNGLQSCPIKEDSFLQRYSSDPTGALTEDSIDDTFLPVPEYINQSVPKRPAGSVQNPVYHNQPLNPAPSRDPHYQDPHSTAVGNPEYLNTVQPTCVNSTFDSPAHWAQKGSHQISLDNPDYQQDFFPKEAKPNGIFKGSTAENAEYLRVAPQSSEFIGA
- assay_name: Biochemical EGFR kinase assay (Lance Ultra TR-FRET), wildtype
- run_parameters: Km ATP; read-out: IC50 WT (nM) Km ATP
- Description: Biochemical EGFR kinase assays were conducted using Lance Ultra time-resolved fluorescence resonance energy transfer (TR-FRET) technology from Perkin-Elmer. […] Each kinase reactions were incubated at room temperature for 1 hour and then stopped by the addition of 4 μL of stop solution (10 mM EDTA). […] After 60 minutes incubation at room temperature the LANCE signal was measured on an EnVision Multilabel Reader (Perkin-Elmer). […]
Quick reference for IC50 among some compounds
measure_name: IC50 (nM)

# compound, tested_on, measure_name, qualifier_operator, numeric_readout
rows = [
    ("CCS(=O)(=O)n1ccc(-c2nccc(Nc3cc(N[C@H]4CC[C@@](C)(O)CC4)c(-c4ccn(C(F)F)n4)cn3)n2)n1", "EGFR wildtype (WT) (Homo sapiens, UniProt P00533)", "IC50", "=", 5.5),
    ("CC1(C)CC(Nc2cc(Nc3ccnc(-c4cnn(S(=O)(=O)C5CC5)c4)n3)ncc2-c2ccn(C(F)F)n2)CCC1O (stereo not drawn)", "EGFR wildtype (WT) (Homo sapiens, UniProt P00533)", "IC50", "=", 46.9),
    ("Cn1nc(-c2cnc(Nc3ccnc(-c4cnn(S(=O)(=O)C5CC5)c4)n3)cc2N[C@H]2CC[C@@](C)(O)CC2)cc1C(C)(C)O", "EGFR wildtype (WT) (Homo sapiens, UniProt P00533)", "IC50", "=", 0.6),
    ("C[C@]1(O)CC[C@@H](Nc2cc(Nc3ccnc(-c4ccc(F)nc4)n3)ncc2-c2ccn(C(F)F)n2)CC1", "EGFR wildtype (WT) (Homo sapiens, UniProt P00533)", "IC50", ">", 10000),
    ("C[C@]1(O)CC[C@@H](Nc2cc(Nc3ccnc(-c4cnn(C(F)F)c4)n3)ncc2-c2ccn(C(F)F)n2)CC1", "EGFR wildtype (WT) (Homo sapiens, UniProt P00533)", "IC50", "=", 1730),
    ("Cn1nc(-c2cnc(Nc3ccnc(-c4cnn(S(=O)(=O)C5CC5)c4)n3)cc2N[C@H]2CC[C@@H](C(C)(C)O)CC2)cc1C(C)(C)O", "EGFR wildtype (WT) (Homo sapiens, UniProt P00533)", "IC50", "=", 1.6),
]

* * *

- tested_on: UniProt:P00533
- assay_name: Biochemical EGFR kinase assay (Lance Ultra TR-FRET), wildtype
- run_parameters: IC50 WT (nM) 100 μM ATP, 100 μM ATP
Measured IC50 of individual entries

# compound, IC50
measured = [
    ("CN(C)C(=O)[C@H]1CC[C@@H](Nc2cc(Nc3ccnc(-c4cnn(S(=O)(=O)C5CC5)c4)n3)ncc2-c2ccn(C)n2)CC1 [Example 232]", "247 nM"),
    ("Cc1ncc(-c2cnc(Nc3ccnc(-c4cnn(S(=O)(=O)C5CC5)c4)n3)cc2N[C@H]2CC[C@@H](O)CC2)s1 [Example 75]", "> 10000 nM"),
    ("O=S(=O)(C1CC1)n1cc(-c2nccc(Nc3cc(N[C@H]4CC[C@H](CO)CC4)c(-c4ccn(C(F)F)n4)cn3)n2)cn1 [Example 198]", "> 10000 nM"),
    ("O=S(=O)(C1CC1)n1cc(-c2nccc(Nc3cc(N[C@H]4CCCNCC4)c(-c4ccn(C(F)F)n4)cn3)n2)cn1 [Example 17]", "> 10000 nM"),
    ("O=S(=O)(C1CC1)n1cc(-c2nccc(Nc3cc(N[C@@H]4CCC[C@H](O)C4)c(-c4csc(C(F)(F)F)n4)cn3)n2)cn1 [Example 96]", "> 10000 nM"),
    ("C[C@]1(O)CC[C@@H](Nc2cc(Nc3ccnc(-c4cnn(S(=O)(=O)C5CC5)c4)n3)ncc2-c2cn(C(F)F)cn2)CC1 [Example 273]", "7310 nM"),
    ("O=S(=O)(C1CC1)n1cc(-c2nccc(Nc3cc(NC4CCCC(NCC(F)F)C4)c(-c4ccn(C(F)F)n4)cn3)n2)cn1 (stereo not shown) [Example 191]", "> 10000 nM"),
    ("C[C@]1(O)CC[C@@H](Nc2cc(Nc3ccnc(-c4cnn(C5CC5)c4)n3)ncc2-c2ccn(C(F)F)n2)CC1 [Example 140]", "8960 nM"),
    ("COCn1cc(-c2nccc(Nc3cc(N[C@H]4CC[C@@](C)(O)CC4)c(-c4ccn(C(F)F)n4)cn3)n2)cn1 [Example 310]", "> 10000 nM"),
    ("CN(C)C[C@H]1CC[C@H](CNc2cc(Nc3ccnc(-c4cnn(S(=O)(=O)C5CC5)c4)n3)ncc2-c2csc(C(F)(F)F)n2)CC1 [Example 101]", "828 nM"),
    ("CN(C)C(=O)n1cc(-c2nccc(Nc3cc(N[C@H]4CC[C@@](C)(O)CC4)c(-c4ccn(C(F)F)n4)cn3)n2)cn1 [Example 311]", "> 10000 nM"),
    ("CNC1CCC(Nc2cc(Nc3ccnc(-c4cnn(S(=O)(=O)C5CC5)c4)n3)ncc2-c2ccn(C(F)F)n2)CC1 (stereo not shown) [Example 16]", "3390 nM"),
    ("O=S(=O)(C1CC1)n1cc(-c2nccc(Nc3cc(N[C@H]4CC[C@@H](O)CC4)c(-c4cnn(C5CC5)c4)cn3)n2)cn1 [Example 78]", "> 10000 nM"),
]

* * *

- tested_on: EGFR L858R/T790M/C797S (Homo sapiens, UniProt P00533, C797S/L858R/T790M)
- Sequence (P00533 25-1210 T790M/C797S/L858R): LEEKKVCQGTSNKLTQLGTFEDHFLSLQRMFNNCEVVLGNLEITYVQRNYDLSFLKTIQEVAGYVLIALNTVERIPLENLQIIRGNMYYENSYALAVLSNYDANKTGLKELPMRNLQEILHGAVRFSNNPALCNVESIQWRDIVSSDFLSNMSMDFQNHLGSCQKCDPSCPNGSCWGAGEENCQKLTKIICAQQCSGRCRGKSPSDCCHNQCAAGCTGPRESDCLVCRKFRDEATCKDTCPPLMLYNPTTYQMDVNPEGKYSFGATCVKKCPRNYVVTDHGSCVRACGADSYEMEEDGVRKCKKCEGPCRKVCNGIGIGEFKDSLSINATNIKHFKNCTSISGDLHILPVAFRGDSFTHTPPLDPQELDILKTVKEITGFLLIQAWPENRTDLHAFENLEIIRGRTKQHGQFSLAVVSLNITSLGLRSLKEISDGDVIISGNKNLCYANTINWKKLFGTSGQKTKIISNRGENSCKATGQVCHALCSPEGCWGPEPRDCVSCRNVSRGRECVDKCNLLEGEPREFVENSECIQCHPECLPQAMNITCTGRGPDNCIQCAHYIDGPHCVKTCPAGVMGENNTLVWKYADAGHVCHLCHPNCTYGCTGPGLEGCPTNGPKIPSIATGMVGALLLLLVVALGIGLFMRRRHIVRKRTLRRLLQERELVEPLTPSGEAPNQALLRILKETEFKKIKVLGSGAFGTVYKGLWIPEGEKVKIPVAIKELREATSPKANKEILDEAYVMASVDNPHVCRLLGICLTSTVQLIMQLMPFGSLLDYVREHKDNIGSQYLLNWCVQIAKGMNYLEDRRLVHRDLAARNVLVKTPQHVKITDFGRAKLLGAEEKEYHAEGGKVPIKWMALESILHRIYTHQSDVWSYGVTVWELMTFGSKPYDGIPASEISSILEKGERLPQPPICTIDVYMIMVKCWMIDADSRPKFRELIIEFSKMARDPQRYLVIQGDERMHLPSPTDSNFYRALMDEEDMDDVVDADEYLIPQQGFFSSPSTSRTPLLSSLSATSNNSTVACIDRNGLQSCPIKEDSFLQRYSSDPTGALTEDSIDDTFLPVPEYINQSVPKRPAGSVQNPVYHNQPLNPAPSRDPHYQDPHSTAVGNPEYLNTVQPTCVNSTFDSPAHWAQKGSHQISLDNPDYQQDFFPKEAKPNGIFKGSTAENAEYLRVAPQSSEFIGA
- assay_name: Biochemical EGFR kinase assay (Lance Ultra TR-FRET), triple mutant L858R/T790M/C797S
- run_parameters: Km ATP; read-out: IC50 L858R/T790M/C797S (nM) Km ATP
measure_name: IC50 (nM)

# compound, numeric_readout
data = [
    ("O=S(=O)(C1CC1)n1cc(-c2nccc(Nc3cc(NC4CCCN(CCF)C4)c(-c4ccn(C(F)F)n4)cn3)n2)cn1 (stereo not drawn)", 0.8),
    ("Cn1nc(-c2cnc(Nc3ccnc(-c4cnn(S(=O)(=O)C5CC5)c4)n3)cc2N[C@H]2CC[C@H](CCO)CC2)cc1C(F)(F)F", 2.6),
    ("COCn1ccc(-c2cnc(Nc3ccnc(-c4cnn(S(=O)(=O)C5CC5)c4)n3)cc2N[C@H]2CC[C@@H](C(C)(C)O)CC2)n1", 0.3),
    ("Cn1ccc(-c2cnc(Nc3ccnc(-c4cnn(S(=O)(=O)C5CC5)c4)n3)cc2N[C@H]2CC[C@@H](F)CC2)n1", 0.8),
    ("CN(C)C[C@H]1C[C@H](CNc2cc(Nc3ccnc(-c4cnn(S(=O)(=O)C5CC5)c4)n3)ncc2-c2ccn(C(F)F)n2)C1", 0.1),
    ("CN(C)C(=O)[C@H]1CC[C@@H](Nc2cc(Nc3ccnc(-c4cnn(S(=O)(=O)C5CC5)c4)n3)ncc2-c2cc(C(F)(F)F)n(C)n2)CC1", 1.1),
]

* * *

- tested_on: EGFR wildtype (WT) (Homo sapiens)
- assay_name: Biochemical EGFR kinase assay (Lance Ultra TR-FRET), wildtype
- run_parameters: IC50 WT (nM) 100 μM ATP, 100 μM ATP
- Description: Biochemical EGFR kinase assays were conducted using Lance Ultra time-resolved fluorescence resonance energy transfer (TR-FRET) technology from Perkin-Elmer. […] Each kinase reactions were incubated at room temperature for 1 hour and then stopped by the addition of 4 μL of stop solution (10 mM EDTA). […] After 60 minutes incubation at room temperature the LANCE signal was measured on an EnVision Multilabel Reader (Perkin-Elmer). […]

# compound, tested_on, IC50
rows = [
    ("O=S(=O)(C1CC1)n1cc(-c2nccc(Nc3cc(NC[C@H]4CC[C@H](CO)CC4)c(-c4ccn(C(F)F)n4)cn3)n2)cn1", "EGFR wildtype (WT) (Homo sapiens)", "> 10000 nM"),
    ("Cn1nc(-c2cnc(Nc3ccnc(-c4cnn(S(=O)(=O)C5CC5)c4)n3)cc2N[C@H]2CC[C@H](CCO)CC2)cc1C(F)(F)F", "EGFR wildtype (WT) (Homo sapiens)", "> 10000 nM"),
    ("CS(=O)(=O)c1ccccc1Nc1nccc(Nc2cc(N[C@H]3CC[C@@](C)(O)CC3)c(-c3ccn(C(F)F)n3)cn2)n1", "EGFR wildtype (WT) (Homo sapiens)", "> 10000 nM"),
    ("Cc1cc(-c2cnc(Nc3ccnc(-c4cnn(S(=O)(=O)C5CC5)c4)n3)cc2N[C@H]2CC[C@@H](CO)CC2)nn1C", "EGFR wildtype (WT) (Homo sapiens)", "51.9 nM"),
    ("CC1(N)CCC(Oc2cc(Nc3ccnc(-c4cnn(S(=O)(=O)C5CC5)c4)n3)ncc2-c2cnn(C(F)F)c2)CC1 (stereo not drawn)", "EGFR wildtype (WT) (Homo sapiens)", "> 10000 nM"),
    ("Cn1ccc(-c2cnc(Nc3ccnc(-c4cnn(S(=O)(=O)C5CC5)c4)n3)cc2NC[C@H]2CC[C@H](NCC(F)F)CC2)n1", "EGFR wildtype (WT) (Homo sapiens)", "> 10000 nM"),
]
